ASSAYED_SYSTEM: recombinant human PAI-1 (Homo sapiens)
ASSAY_NOTES: Test Example 2: Human PAI-1 Inhibitory Activity (pH 7.4 HEPES buffer, 10 minutes incubation with two-chain tPA)
Type: biochemical
Set-up: purchased Molecular Innovations, Inc
TEST_PARAMETERS: read-out: Inhibition Rate of PAI-1 Activity (%)
Let's look at some compounds and their measured inhibition at 3 µM.

Some solved cases for reference:
>>> assay_value("COc1ccc(-c2ccc(OC(F)(F)F)cc2)cc1N(CCCCc1ccccc1)C(=O)C(=O)O")
"74%"
>>> assay_value("CCCCOc1ccc(-c2ccc(OC(F)(F)F)cc2)cc1N(Cc1ccc(C(C)(C)C)cc1)C(=O)C(=O)O")
"97%"
>>> assay_value("O=C(O)COc1ccc(-c2ccc(OC(F)(F)F)cc2)cc1Oc1ccc(OCc2ccccc2)cc1")
"> 99%"
>>> assay_value("Cc1ccc(N(Cc2ccc(C(C)(C)C)cc2)C(=O)C(=O)O)cc1-c1ccc(OC(F)(F)F)cc1")
"96%"
>>> assay_value("O=C(O)C(=O)N(CCCCc1ccccc1)c1cc(-c2ccc(OC(F)(F)F)cc2)ccc1Oc1ccccc1")
"> 99%"
>>> assay_value("CC(C)(C)c1ccc(Oc2cc(-c3ccccc3OC(F)(F)F)ccc2/C=C/C(=O)O)cc1")
"> 99%"
>>> assay_value("CC(C)(C)c1ccc(CN(C(=O)C(=O)O)c2ccc(OCc3ccccc3)c(-c3ccc(OC(F)(F)F)cc3)c2)cc1")
"98%"
>>> assay_value("CC(C)(C)c1ccc(COc2ccc(N3CCN(c4ccc(OC(F)(F)F)cc4)CC3)cc2/C=C/C(=O)O)cc1")
"95%"
>>> assay_value("CC(C)(C)c1ccc(Oc2cc(Nc3ccc(OC(F)(F)F)cc3)ccc2CCC(=O)O)cc1")
"> 99%"
>>> assay_value("CCC(CC)Oc1ccc(-c2ccc(OC(F)(F)F)cc2)cc1N(CCCCc1ccccc1)C(=O)C(=O)O")
"95%"

For the compound CC(C)(C)c1ccc(Oc2cc(-c3ccc(OC(F)(F)F)cc3)ccc2CCC(=O)O)cc1 , the measured inhibition at 3 µM on recombinant human PAI-1 (Homo sapiens) was > 99%

For the compound CC(C)(C)c1ccc(COc2cccc(Oc3ccc(OC(F)(F)F)cc3)c2CCC(=O)O)cc1 , the measured inhibition at 3 µM on recombinant human PAI-1 (Homo sapiens) was 87%

For the compound CCCCOc1ccc(-c2ccc(OC(F)(F)F)cc2)cc1CCC(=O)O , the measured inhibition at 3 µM on recombinant human PAI-1 (Homo sapiens) was 41%

For the compound CCCCCOc1ccc(-c2ccc(OC(F)(F)F)cc2)cc1N(CCCOc1ccccc1)C(=O)C(=O)O , the measured inhibition at 3 µM on recombinant human PAI-1 (Homo sapiens) was > 99%

For the compound CCCCCOc1ccc(-c2ccc(C(F)(F)F)cc2)cc1N(CCCCc1ccccc1)C(=O)C(=O)O , the measured inhibition at 3 µM on recombinant human PAI-1 (Homo sapiens) was 87%

---

ASSAYED_SYSTEM: recombinant human PAI-1 (Homo sapiens, UniProt P05121)
Sequence (P05121 24-402): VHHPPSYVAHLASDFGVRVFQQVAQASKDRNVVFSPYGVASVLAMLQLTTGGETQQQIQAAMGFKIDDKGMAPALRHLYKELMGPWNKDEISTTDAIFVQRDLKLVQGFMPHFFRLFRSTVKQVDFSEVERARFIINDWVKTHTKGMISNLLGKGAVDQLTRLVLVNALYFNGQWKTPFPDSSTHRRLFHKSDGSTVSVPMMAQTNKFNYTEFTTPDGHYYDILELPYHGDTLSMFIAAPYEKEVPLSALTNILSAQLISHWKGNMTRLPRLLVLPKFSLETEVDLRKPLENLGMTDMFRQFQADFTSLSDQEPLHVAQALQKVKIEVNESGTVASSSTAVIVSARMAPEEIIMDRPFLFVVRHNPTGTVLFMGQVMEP
ASSAY_NOTES: Test Example 2: Human PAI-1 Inhibitory Activity (pH 7.4 HEPES buffer, 10 minutes incubation with two-chain tPA)
Assay type: biochemical
Design: purchased Molecular Innovations, Inc
TEST_PARAMETERS: read-out: Inhibition Rate of PAI-1 Activity (%)
ATTRIBUTE_MEASURED: inhibition at 1 µM

Some solved cases for reference:
>>> assay_value("COc1cc(OC)c(N(Cc2ccc(C(C)(C)C)cc2)C(=O)C(=O)O)cc1-c1ccc(OC(F)(F)F)cc1")
"27%"
>>> assay_value("O=C(O)/C=C/c1ccc(-c2ccc(OC(F)(F)F)cc2)cc1OC(c1ccccc1)c1ccccc1")
"78%"
>>> assay_value("CCCCCOc1cc(-c2ccc(OC(F)(F)F)cc2)cc(OCCCCC)c1OCC(=O)O")
"38%"
>>> assay_value("CC(C)c1ccc(-c2ccc(/C=C/C(=O)O)c(Sc3ccc(C(C)(C)C)cc3)c2)cc1")
"> 99%"
>>> assay_value("CCCCCOc1ccc(-c2ccc(OC(F)(F)F)cc2)cc1CN(CC(=O)O)c1ccc(C(C)(C)C)cc1")
"95%"

Reported inhibition at 1 µM ( CC(C)(C)c1ccc(Sc2cc(-c3ccc(OC(F)(F)F)cc3)ccc2C(=O)O)cc1 ) = 97%

Reported inhibition at 1 µM ( CC(C)(C)c1ccc(CN(C(=O)C(=O)O)c2ccc(C(=O)Nc3ccc(OC(F)(F)F)cc3)cc2)cc1 ) = 6%

Reported inhibition at 1 µM ( CC(C)(C)Oc1ccc(Oc2cc(-c3ccc(OC(F)(F)F)cc3)ccc2CCC(=O)O)cc1 ) = 26%

Reported inhibition at 1 µM ( O=C(O)C(=O)N(CCCCc1ccccc1)c1cc(-c2ccc(OC(F)(F)F)cc2)ccc1OCCCCCO ) = 60%

Reported inhibition at 1 µM ( CCCCOc1ccc(Oc2cc(-c3ccc(OC(F)(F)F)cc3)ccc2OCC(=O)O)cc1 ) = 78%

Reported inhibition at 1 µM ( CC(C)(C)c1ccc(Oc2cc(Oc3ccc(OC(F)(F)F)cc3)ccc2OCC(=O)O)cc1 ) = 87%

Reported inhibition at 1 µM ( CC(C)(C)c1ccc(CN(C(=O)C(=O)O)c2cccc(Oc3ccc(OC(F)(F)F)cc3)c2)cc1 ) = 18%

Reported inhibition at 1 µM ( CCCCCOc1cc(Oc2ccc(OC(F)(F)F)cc2)ccc1N(CCCCc1ccccc1)C(=O)C(=O)O ) = 61%

Reported inhibition at 1 µM ( CCCCCOc1ccc(-c2ccc(Cl)cc2)cc1N(CCCCc1ccccc1)C(=O)C(=O)O ) = 68%

Reported inhibition at 1 µM ( CC(C)(C)c1ccc(CN(C(=O)C(=O)O)c2ccc(OCc3ccccc3)c(-c3ccc(OC(F)(F)F)cc3)c2)cc1 ) = 64%

Reported inhibition at 1 µM ( O=C(O)C(=O)N(CCCCc1ccccc1)c1cc(-c2ccc(OC(F)(F)F)cc2)ccc1OCCCC1CCCC1 ) = 91%

Reported inhibition at 1 µM ( CCCCC(Oc1ccc(-c2ccc(OC(F)(F)F)cc2)cc1Oc1ccc(C(C)(C)C)cc1)C(=O)O (stereo not shown) ) = 54%

Reported inhibition at 1 µM ( CC(C)c1ccc(Oc2cc(-c3ccc(OC(F)(F)F)cc3)ccc2CCC(=O)O)cc1 ) = 84%

Reported inhibition at 1 µM ( CC(C)(C)c1ccc(Sc2cc(-c3ccc(OC(F)(F)F)cc3)ccc2CC(=O)O)cc1 ) = 93%

Reported inhibition at 1 µM ( CCCCCCCCCOc1cc(N(CCCCc2ccccc2)C(=O)C(=O)O)ccc1-c1ccc(OC(F)(F)F)cc1 ) = > 99%

Reported inhibition at 1 µM ( CC(C)(C)c1ccc(Oc2cc(Nc3ccc(OC(F)(F)F)cc3)ccc2/C=C/C(=O)O)cc1 ) = 94%

Reported inhibition at 1 µM ( CCCCC(Oc1cc(-c2cccc(C(F)(F)F)c2)ccc1Oc1ccc(C(C)(C)C)cc1)C(=O)O (stereo not shown) ) = 90%

---

ASSAYED_SYSTEM: recombinant human PAI-1 (Homo sapiens, UniProt P05121)
ASSAY_NOTES: biochemical
TEST_PARAMETERS: read-out: Inhibition Rate of PAI-1 Activity (%)
ATTRIBUTE_MEASURED: inhibition at 10 µM (%)
Value expressed in %; do not type the unit.

>>> assay_value("CC(C)(C)c1ccc(CN(C(=O)C(=O)O)c2ccc(Oc3ccc(OC(F)(F)F)cc3)cc2)cc1")
32
>>> assay_value("Cc1ccc(CN(C(=O)C(=O)O)c2ccc(-c3ccc(OC(F)(F)F)cc3)cc2)cc1")
1

Reported inhibition at 10 µM ( CC(C)(C)c1ccc(CN(C(=O)C(=O)O)c2ccc(N3CCCCC3)c(-c3ccc(OC(F)(F)F)cc3)c2)cc1 ) = 84

Reported inhibition at 10 µM ( CC(C)(C)c1ccc(COc2ccc(-c3ccc(OC(F)(F)F)cc3)cc2OCCCC(=O)O)cc1 ) = 50

Reported inhibition at 10 µM ( CC(C)(C)c1ccc(CN(C(=O)C(=O)O)c2ccc(N3CCCCC3=O)c(-c3ccc(OC(F)(F)F)cc3)c2)cc1 ) = 58

---

ASSAYED_SYSTEM: recombinant human PAI-1 (Homo sapiens, UniProt P05121)
ASSAY_NOTES: biochemical
TEST_PARAMETERS: read-out: Inhibition Rate of PAI-1 Activity (%)
ATTRIBUTE_MEASURED: inhibition at 25 µM
Give the value; after it, write the unit.

>>> assay_value("CCCCOc1ccc(-c2ccc(OC(F)(F)F)cc2)cc1N(CCCc1ccccc1)C(=O)C(=O)O")
"93%"
>>> assay_value("CC(C)(Nc1cc(-c2ccc(OC(F)(F)F)cc2)ccc1OCc1ccc(C(C)(C)C)cc1)C(=O)O")
"83%"
>>> assay_value("CC(C)c1ccc(Oc2ccc(/C=C/C(=O)O)c(Oc3ccc(C(C)C)cc3)c2)cc1")
"98%"

Kindly consider the entry below.
Reported inhibition at 25 µM ( O=C(O)CCc1cc(-c2ccc(OC(F)(F)F)cc2)ccc1OCCCCCc1ccccc1 ) = 96%
